In this section we review reported Cmax values for a set of compounds.
- measurementProtocol: Single-dose oral pharmacokinetic profile in mice
- Format: in vivo
- runParameters: mouse; male C57BL/6 mice, single oral dose 200 mg/kg, plasma; read-out: Cmax [ng/ml]
Report only the number, with the unit ng/mL understood.

>>> endpointresult("CNC(=O)C(=O)CC[C@H](NC(=O)c1cc(Cl)sc1Cl)C(=O)Nc1cccn(CC(=O)NC2C3CC4CC(C3)CC2C4)c1=O (stereo partly drawn)")
15100
>>> endpointresult("CNC(=O)C(=O)CC[C@H](NC(=O)c1oc2ccccc2c1C)C(=O)Nc1cccn(CC(=O)NC2C3CC4CC(C3)CC2C4)c1=O (stereo partly drawn)")
13600

# ---- query compound ----
Read the entry CNC(=O)C(=O)CC[C@H](NC(=O)c1sc(C(F)(F)F)nc1C)C(=O)Nc1cccn(CC(=O)NC2C3CC4CC(C3)CC2C4)c1=O (stereo partly drawn) and write its reported Cmax.
32300

###

- measurementProtocol: logD by shake flask method (octanol / PBS pH 7.4, HPLC)
- Type: physicochemical
- runParameters: octanol / PBS pH 7.4, shake flask
assayMetric: logD

# count of solved cases: 10
>>> endpointresult("CNC(=O)C(=O)CC[C@H](NC(=O)c1snnc1C)C(=O)Nc1cccn(CC(=O)N[C@H]2C[C@H]3CC[C@]2(C)C3(C)C)c1=O")
"< 1"
>>> endpointresult("CNC(=O)C(=O)CC[C@H](NC(=O)c1cc(C)oc1C)C(=O)Nc1cccn(CC(=O)NC2C3CC4CC(C3)CC2C4)c1=O (some centres unmarked)")
"1 to 3"
>>> endpointresult("CNC(=O)C(=O)CC[C@H](NC(=O)c1cnnn1C)C(=O)Nc1cccn(CC(=O)N[C@H]2C[C@H]3CC[C@]2(C)C3(C)C)c1=O")
"< 1"
>>> endpointresult("NC(=O)C(=O)CC[C@H](NC(=O)c1cc2ccccc2o1)C(=O)Nc1cccn(CC(=O)NC2C3CC4CC(C3)CC2C4)c1=O (some centres unmarked)")
"1 to 3"
>>> endpointresult("CNC(=O)C(=O)CC[C@H](NC(=O)c1sc(Br)c(Br)c1OC)C(=O)Nc1cccn(CC(=O)NC2C3CC4CC(C3)CC2C4)c1=O (some centres unmarked)")
"3 to 5"
>>> endpointresult("CNC(=O)C(=O)CC[C@H](NC(=O)c1nc[nH]n1)C(=O)Nc1cccn(CC(=O)NC2C3CC4CC(C3)CC2C4)c1=O (some centres unmarked)")
"< 1"
>>> endpointresult("CNC(=O)C(=O)CC[C@H](NC(=O)c1cccnn1)C(=O)Nc1cccn(CC(=O)NC2C3CC4CC(C3)CC2C4)c1=O (some centres unmarked)")
"< 1"
>>> endpointresult("CNC(=O)C(=O)CC[C@H](NC(=O)c1cc2ccccc2o1)C(=O)Nc1cccn(CC(=O)NC2C3CCCC2CC3)c1=O (some centres unmarked)")
"< 1"
>>> endpointresult("CNC(=O)C(=O)CC[C@H](NC(=O)c1oc2ccccc2c1C)C(=O)Nc1cccn(CC(=O)NC2C3CCC2CC3)c1=O (some centres unmarked)")
"1 to 3"
>>> endpointresult("CNC(=O)C(=O)CC[C@H](NC(=O)c1nncs1)C(=O)Nc1cccn(CC(=O)NC23CC(C2)C3)c1=O")
"< 1"

Return logD for the following compound: CNC(=O)C(=O)CC[C@H](NC(=O)c1sc(Br)nc1C)C(=O)Nc1cccn(CC(=O)NC2C3CC4CC(C3)CC2C4)c1=O (some centres unmarked)
1 to 3

Provide logD value for the following compound: O=C(Cn1cccc(NC(=O)[C@H](CCC(=O)C(=O)NC2CC2)NC(=O)c2cc3ccccc3o2)c1=O)NC1C2CC3CC(C2)CC1C3 (some centres unmarked)
3 to 5

Consider the compound NC(=O)C(=O)CC[C@H](NC(=O)c1cc(Cl)sc1Cl)C(=O)Nc1cccn(CC(=O)NC2C3CC4CC(C3)CC2C4)c1=O (some centres unmarked) and give its recorded logD.
1 to 3

Input CNC(=O)C(=O)CC[C@H](NC(=O)c1cnnn1C)C(=O)Nc1cccn(CC(=O)NC2C3CC4CC(C3)CC2C4)c1=O (some centres unmarked) , output reported logD.
< 1

###

- measurementProtocol: Caco-2 permeability assay (CacoReady kit)
- Format: in vitro ADME
- runParameters: human, Caco-2, Caco-2 barrier, CacoReady kit; above 1×10^−6 cm/s classified as permeable
assayMetric: Papp

>>> endpointresult("CNC(=O)C(=O)CC[C@H](NC(=O)[C@@H]1C[C@H](Br)CN1)C(=O)Nc1cccn(CC(=O)NC2C3CC4CC(C3)CC2C4)c1=O (some centres unmarked) [II-56]")
"< 1 ×10⁻⁶ cm/s"
>>> endpointresult("CNC(=O)C(=O)CC[C@H](NC(=O)c1snnc1C1CC1)C(=O)Nc1cccn(CC(=O)NC2C3CC4CC(C3)CC2C4)c1=O (some centres unmarked) [II-202]")
"< 1 ×10⁻⁶ cm/s"
>>> endpointresult("CNC(=O)C(=O)CC[C@H](NC(=O)c1oc(Br)cc1C)C(=O)Nc1cccn(CC(=O)NC2C3CC4CC(C3)CC2C4)c1=O (some centres unmarked) [II-25]")
"1 to 10 ×10⁻⁶ cm/s"
>>> endpointresult("CNC(=O)C(=O)CC[C@H](NC(=O)c1oc2ccccc2c1C)C(=O)Nc1cccn(CC(=O)NC23CC4CC5C2C[C@@H]2C[C@H]5C(C4)[C@H]3C2)c1=O (stereo in doubt) [II-104]")
"1 to 10 ×10⁻⁶ cm/s"
>>> endpointresult("CNC(=O)C(=O)CC[C@H](NC(=O)c1cnn(C)c1)C(=O)Nc1cccn(CC(=O)NC2C3CC4CC(C3)CC2C4)c1=O (some centres unmarked) [II-139]")
"< 1 ×10⁻⁶ cm/s"
>>> endpointresult("O=C(Cn1cccc(NC(=O)[C@H](CCC(=O)C(=O)NC2CCCC2)NC(=O)c2nc3ccccc3s2)c1=O)N[C@@H]1C[C@@H]2CC[C@H]1C2 [II-178]")
"1 to 10 ×10⁻⁶ cm/s"
>>> endpointresult("CNC(=O)C(=O)CC[C@H](NC(=O)C1CN2CCC1CC2)C(=O)Nc1cccn(CC(=O)NC2C3CC4CC(C3)CC2C4)c1=O (some centres unmarked) [II-61]")
"< 1 ×10⁻⁶ cm/s"
>>> endpointresult("CNC(=O)C(=O)CC[C@H](NC(=O)c1ccnn1C)C(=O)Nc1cccn(CC(=O)N[C@@H]2C[C@H]3CC[C@@H]2C3)c1=O [II-153]")
"< 1 ×10⁻⁶ cm/s"
>>> endpointresult("CNC(=O)C(=O)CC[C@H](NC(=O)c1oc2ccccc2c1C)C(=O)Nc1cccn(CC(=O)NC2(C(=O)OC)C3CC4CC(C3)CC2C4)c1=O (some centres unmarked) [II-74]")
"< 1 ×10⁻⁶ cm/s"
>>> endpointresult("CNC(=O)C(=O)CC[C@H](NC(=O)c1ncc(OC)o1)C(=O)Nc1cccn(CCC(=O)NC2C3CC4CC(C3)CC2C4)c1=O (some centres unmarked) [II-166]")
"1 to 10 ×10⁻⁶ cm/s"

Fill in Papp for record CNC(=O)C(=O)CC[C@H](NC(=O)c1oc2ccccc2c1C)C(=O)Nc1cccn(CC(=O)NC23CCC(C2)C3)c1=O [II-169]
1 to 10 ×10⁻⁶ cm/s

Specify measured Papp for CNC(=O)C(=O)CC[C@H](NC(=O)c1ccnn1C)C(=O)Nc1cccn(CC(=O)NC2C3CC4CC(C3)CC2C4)c1=O (some centres unmarked) [II-140] .
< 1 ×10⁻⁶ cm/s

Using the record for Cc1nc2ncccc2cc1C(=O)N[C@@H](CCC(=O)C(=O)NC1CCCCC1)C(=O)Nc1cccn(CC(=O)NC23CC(C2)C3)c1=O [II-184] , state its measured Papp.
< 1 ×10⁻⁶ cm/s

Fill in Papp for record CNC(=O)C(=O)CC[C@H](NC(=O)c1oc2ccccc2c1C)C(=O)Nc1cccn(CC(=O)NC2C3CCC2CC3)c1=O (some centres unmarked) [II-96]
1 to 10 ×10⁻⁶ cm/s

Return Papp for the following compound: CCc1nnsc1C(=O)N[C@@H](CCC(=O)C(=O)NC)C(=O)Nc1cccn(CC(=O)NC2C3CC4CC(C3)CC2C4)c1=O (some centres unmarked) [II-204]
< 1 ×10⁻⁶ cm/s

###

Reported logD values for the following compounds.
- measurementProtocol: logD by shake flask method (octanol / PBS pH 7.4, HPLC)
- Format: physicochemical
- runParameters: octanol / PBS pH 7.4, shake flask

In the examples that follow, each entry is paired with its recorded logD.
>>> endpointresult("CNC(=O)C(=O)CC[C@H](NC(=O)c1ccncc1)C(=O)Nc1cccn(CC(=O)NC2C3CC4CC(C3)CC2C4)c1=O (stereo partly drawn)")
"1 to 3"
>>> endpointresult("CNC(=O)C(=O)CC[C@H](NC(=O)c1cnnn1C)C(=O)Nc1cccn(CC(=O)N[C@@H]2C[C@H]3CC[C@@H]2C3)c1=O")
"< 1"

Let me know recorded logD for CCCCCNC(=O)C(=O)CC[C@H](NC(=O)c1oc2ccccc2c1C)C(=O)Nc1cccn(CC(=O)NC2C3CC4CC(C3)CC2C4)c1=O (stereo partly drawn) , thanks.
3 to 5
